- experimental_target: Histamine H3 (Cavia porcellus)
- Construct: ileum longitudinal muscle myenteric plexus membranes; from tissue; host or cells: ileum longitudinal muscle myenteric plexus membranes of male Dunkin Hartley guinea pigs
- Sequence (Q9JI35 whole entry): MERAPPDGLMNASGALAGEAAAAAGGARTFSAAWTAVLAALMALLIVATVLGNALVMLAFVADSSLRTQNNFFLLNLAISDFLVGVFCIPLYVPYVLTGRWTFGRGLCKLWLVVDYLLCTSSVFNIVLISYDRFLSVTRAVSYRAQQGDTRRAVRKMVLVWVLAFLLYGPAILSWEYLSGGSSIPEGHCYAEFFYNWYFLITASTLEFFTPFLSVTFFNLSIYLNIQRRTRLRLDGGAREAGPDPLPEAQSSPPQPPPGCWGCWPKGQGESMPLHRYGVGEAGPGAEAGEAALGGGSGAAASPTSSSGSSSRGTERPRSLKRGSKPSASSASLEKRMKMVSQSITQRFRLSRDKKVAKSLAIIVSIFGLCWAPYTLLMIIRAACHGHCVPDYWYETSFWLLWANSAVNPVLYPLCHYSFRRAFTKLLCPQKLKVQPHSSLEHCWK
- assay_comment: Histamine H3 radioligand binding assay, [3H]-R-α-methylhistamine, guinea pig ileum longitudinal muscle myenteric plexus membranes
- study_conditions: 3 nM [3H]-R-α-methylhistamine, 165 min, 21±3° C., Cheng Prusoff; variance ±0.12 log units; read-out: pK1 (binding assay) (converted)
measured_quantity: Ki (nM)

structure_smiles | experimental_target | measured_quantity | assay_result
O=S(=O)(CCc1ccc(Cl)cc1)NCCCCCc1c[nH]cn1 | Histamine H3 (Cavia porcellus) | Ki | 10

P: O=S(=O)(NCCCCc1c[nH]cn1)NCCc1ccc(Cl)cc1
Q: O=S(=O)(CCc1ccc(Cl)cc1)NCCCCc1c[nH]cn1
R: CN(CCCCc1c[nH]cn1)S(=O)(=O)NCc1ccc(Cl)cc1
S: O=S(=O)(NCCCCCCc1c[nH]cn1)NCc1ccc(Br)cc1
## Input Let's sort these by Ki, smallest first. Go ahead? I would appreciate it if you listed the labels in the requested order.
## Output R, S, Q, P
(R: 1.86 nM, S: 4.37 nM, Q: 7.76 nM, P: 14.5 nM)

====

- experimental_target: Histamine H3 (Cavia porcellus)
- Construct: ileum longitudinal muscle myenteric plexus membranes; from tissue; host or cells: ileum longitudinal muscle myenteric plexus membranes of male Dunkin Hartley guinea pigs
- assay_comment: Histamine H3 radioligand binding assay, [3H]-R-α-methylhistamine, guinea pig ileum longitudinal muscle myenteric plexus membranes
- study_conditions: 3 nM [3H]-R-α-methylhistamine, 165 min, 21±3° C., Cheng Prusoff; variance ±0.12 log units; read-out: pK1 (binding assay) (converted)
measured_quantity: Ki (nM)

Known results for molecules:
structure_smiles | unit_tag | assay_result
O=S(=O)(NCCCCCCCCc1c[nH]cn1)NCc1ccc(Cl)cc1 | nM | 15.8
O=S(=O)(NCCCCCc1c[nH]cn1)NCc1ccc(I)cc1 | nM | 7.76
O=S(=O)(NCCCCCc1c[nH]cn1)NCc1ccc(F)cc1 | nM | 10.5
O=S(=O)(NCCCCc1c[nH]cn1)NCC12CC3CC(CC(C3)C1)C2 | nM | 200
O=S(=O)(NCCCCCCc1c[nH]cn1)NCc1ccc(F)cc1 | nM | 8.32
O=S(=O)(Cc1ccc2ccccc2c1)NCCc1c[nH]cn1 | nM | 1120

P: CN(Cc1ccc(Cl)cc1)S(=O)(=O)NCCCCc1c[nH]cn1
Q: O=S(=O)(NCCCCCc1c[nH]cn1)NCc1ccc(Br)cc1
R: O=S(=O)(NCCCCc1c[nH]cn1)NCC1CCCCC1
## Input Put these in order: smallest Ki first, largest last. Reply with the labels, ordered as the question asks.
## Output Q, P, R

P: O=S(=O)(NCCCCc1c[nH]cn1)NCc1ccc2ccccc2c1
Q: O=S(=O)(NCCCCCc1c[nH]cn1)NCc1ccc(-c2ccccc2)cc1
R: O=S(=O)(NCCCc1c[nH]cn1)NCCc1ccc(Cl)cc1
## Input Parameters: sort_field (Ki), sort_dir (desc). Provide the ranking by listing each label in its place in the requested order.
## Output R, Q, P
(R: 138 nM, Q: 27.5 nM, P: 16.6 nM)

I: O=S(=O)(NCc1ccc(Br)cc1)N(CCCCc1c[nH]cn1)Cc1ccc(Br)cc1
II: O=S(=O)(NCCCCc1c[nH]cn1)NCc1ccc(C(F)(F)F)cc1
## Input I'd appreciate it if you could identify which of I and II has the greater Ki. // respond with label for picked entry
## Output I

Cited source for all entries: patent US6080871A
